# Lookup of reported self-aminoacylation keyed by entry
Tested on: biotinyl-Trp-oxazolone
experimentalProtocol: self-aminoacylation, catalytic enhancement (BWO) (fold over background); higher = more active; k-Seq, kA / k0A0; sequences stand for … in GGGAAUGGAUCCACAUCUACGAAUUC…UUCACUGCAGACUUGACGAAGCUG
Fewer inactive variants are shown than the library holds.
observedProperty: self-aminoacylation

* AUUCACCAAGGUCAGCGGGUG [Fam2.2 aminoacylation ribozyme variant] | 4.65
* AUUCACAAAGGUCAUCGGGUG [Fam2.2 aminoacylation ribozyme variant] | 8.7
* AAGUUUGCUGAUAGCCGCAAG [Fam3.1 aminoacylation ribozyme variant] | 0.586
* AUUCUCCUACGUCAUCGGGUG [Fam2.2 aminoacylation ribozyme variant] | 6.69
* AUGACCCUGGUCAUCGAGUGU [Fam2.1 aminoacylation ribozyme variant] | 64.9
* AAGUUUGCUAAUAGCCGCCAG [Fam3.1 aminoacylation ribozyme variant] | 1.21
* AUUACCCUGGUCAUUGAGUGC [Fam2.1 aminoacylation ribozyme variant] | 0.798
* AAGUUUCCUAAUACUCGCAAG [Fam3.1 aminoacylation ribozyme variant] | 0.555
* AUUGACCUAUGUCAUCGGGUG [Fam2.2 aminoacylation ribozyme variant] | 5.17
* AUUAUCCUGGUCAUCUAGUGA [Fam2.1 aminoacylation ribozyme variant] | 13.2
* AAGUUCGCUAAUAGUCACAAG [Fam3.1 aminoacylation ribozyme variant] | 1.64
* AUUACCCUGGUGAUCGAAUGA [Fam2.1 aminoacylation ribozyme variant] | 0.949
* AUUCACCCACGUCAUCGGGUG [Fam2.2 aminoacylation ribozyme variant] | 3.99
* CCACGCUACAAGCAAUCGGUC [Fam1B.1 aminoacylation ribozyme variant] | 1.2
* AUUCAACUACGUCAUCGGGUG [Fam2.2 aminoacylation ribozyme variant] | 4.72
* AUUACCCUAUUCAUCGAGUGA [Fam2.1 aminoacylation ribozyme variant] | 6.86
* CUGCUUCAAACAAUCGGUCUU [Fam1A.1 aminoacylation ribozyme variant] | 52
* AACUUUGCUAAUAGUCGCAAU [Fam3.1 aminoacylation ribozyme variant] | 2.77

* * *

Tested on: biotinyl-Met-oxazolone
experimentalProtocol: self-aminoacylation, catalytic enhancement (BMO) (fold over background); higher = more active; k-Seq, kA / k0A0; sequences stand for … in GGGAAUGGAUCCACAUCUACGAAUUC…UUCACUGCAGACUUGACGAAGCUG
This sample holds only a part of the variants without activity.
observedProperty: self-aminoacylation

* AUCCACCUAGCUCAUCGGGUG [Fam2.2 aminoacylation ribozyme variant] | 3.28
* AUUACCAUGGUCAUCGAGUAA [Fam2.1 aminoacylation ribozyme variant] | 1.7
* AUUUCCCUGGUCAUCGAGUGU [Fam2.1 aminoacylation ribozyme variant] | 14.9
* UUUACCCUGGUCAUUGAGUGA [Fam2.1 aminoacylation ribozyme variant] | 7.86
* GUUACCCGGGUCAUCGAGUGA [Fam2.1 aminoacylation ribozyme variant] | 8.11
* AUGACCCUGGUCAUCGAGUGU [Fam2.1 aminoacylation ribozyme variant] | 89.5
* AAGUUUGUUAAUAGUCGUAAG [Fam3.1 aminoacylation ribozyme variant] | 0.893

* * *

Tested on: biotinyl-Trp-oxazolone
experimentalProtocol: self-aminoacylation, catalytic enhancement (BWO) (fold over background); higher = more active; k-Seq, kA / k0A0; sequences stand for … in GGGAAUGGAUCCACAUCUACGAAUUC…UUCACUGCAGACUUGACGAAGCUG
Fewer inactive variants are shown than the library holds.
Each entry below lists one item and its recorded self-aminoacylation value.
observedProperty: self-aminoacylation

* AUUGCCCCGGUCAUCGAGUGA [Fam2.1 aminoacylation ribozyme variant] | 6.57
* AUUACCCUGGUCAUCGAAUGA [Fam2.1 aminoacylation ribozyme variant] | 0.908
* CUACCUCAAACAAUCGUUCUG [Fam1A.1 aminoacylation ribozyme variant] | 0.863
* CCACCGUUCAAGCAAUCGGUC [Fam1B.1 aminoacylation ribozyme variant] | 1.11
